# target-entity: wt Bid (Mus musculus, UniProt P70444)
# Sequence (P70444 1-195): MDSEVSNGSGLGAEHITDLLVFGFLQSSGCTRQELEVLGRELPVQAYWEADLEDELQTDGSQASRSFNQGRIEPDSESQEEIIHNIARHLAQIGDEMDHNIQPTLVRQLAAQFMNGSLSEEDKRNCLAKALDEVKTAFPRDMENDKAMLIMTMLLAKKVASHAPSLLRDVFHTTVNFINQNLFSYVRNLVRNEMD
# test: ADIFAB fluorescence quenching
# condition-summary: recombinant mouse wt Bid, ADIFAB 0.2 μM, room temperature
pKd: −log10 of the molar value.

compound | pKd
CCCCCCCC/C=C\CCCCCCCC(=O)OC[C@@H](O)COP(=O)(O)OCC(O)CO (some centres unmarked) | 7.10

====

Measured Kd accompanies every entry in the list below.
# target-entity: Bid R187E (Mus musculus, UniProt P70444, R187E)
# test: ADIFAB fluorescence quenching
# Format: binding
# condition-summary: recombinant mouse Bid R187E mutant, ADIFAB 0.2 μM, room temperature

compound | target-entity | Kd
CCCCCCCC/C=C\CCCCCCCC(=O)OC[C@@H](O)COP(=O)(O)OCC(O)CO (some centres unmarked) | Bid R187E (Mus musculus, UniProt P70444, R187E) | 100 nM
CCCCCCCCCCCCCCCC(=O)OC[C@@H](O)COP(=O)([O-])OCC[N+](C)(C)C | Bid R187E (Mus musculus, UniProt P70444, R187E) | 5500 nM
